The measurements presented in this section are drawn from patent US20110318339A1.

Answer each item with its documented ELISA absorbance at 450 nm.
Biological target: T1, recombinant human DLL4 (Cat# 1506-D4/CF, R&D Systems) (human, UniProt Q9NR61 27-529)
T1 construct: Bought protein; also called hDLL4; rHuman DLL4
Experiment: ELISA, DLL4 coated, Fab 100 nM

Worked set:
BINDER | RESULT_TYPE | VALUE_REPORTED
Fab VH5-51_IGHD5-18*01>3_IGHJ4*01 G100K/G104T G24T/S28R/G35V & V3-4_IGLJ1*01 V91L/S96P S52I (Fab, V domains shown, Fab made in E. coli: VH on CH1 with His6 and Flag tags (Plasmid A), VL on lambda CL (Plasmid E); also called H: KT TRV & L: LP S52I) VH: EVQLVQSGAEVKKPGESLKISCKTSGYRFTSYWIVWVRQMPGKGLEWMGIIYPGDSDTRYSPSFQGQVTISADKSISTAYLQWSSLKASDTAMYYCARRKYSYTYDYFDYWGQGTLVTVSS VL: QTVVTQEPSFSVSPGGTVTLTCGLSSGSVSTSYYPSWYQQTPGQAPRTLIYITNTRSSGVPDRFSGSILGNKAALTITGAQADDESDYYCLLYMGPGISYVFGTGTKVTVL | ELISA absorbance at 450 nm | 1.04 A450
Fab VH5-51_IGHD5-18*01>3_IGHJ4*01 G100K/G104T G24T/S28R/G35V & V3-4_IGLJ1*01 V91L/S96P S52V (Fab, V domains shown, Fab made in E. coli: VH on CH1 with His6 and Flag tags (Plasmid A), VL on lambda CL (Plasmid E); also called H: KT TRV & L: LP S52V) VH: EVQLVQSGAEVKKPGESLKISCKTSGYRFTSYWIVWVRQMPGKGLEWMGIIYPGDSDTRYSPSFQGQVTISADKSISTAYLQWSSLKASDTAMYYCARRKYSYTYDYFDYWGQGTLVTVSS VL: QTVVTQEPSFSVSPGGTVTLTCGLSSGSVSTSYYPSWYQQTPGQAPRTLIYVTNTRSSGVPDRFSGSILGNKAALTITGAQADDESDYYCLLYMGPGISYVFGTGTKVTVL | ELISA absorbance at 450 nm | 0.95 A450

Then there is this binder:
Consider Fab VH5-51_IGHD5-18*01>3_IGHJ4*01 G100K/G104T G24T/S28R/G35V & V3-4_IGLJ1*01 V91L/S96P S52T (Fab, V domains shown, Fab made in E. coli: VH on CH1 with His6 and Flag tags (Plasmid A), VL on lambda CL (Plasmid E); also called H: KT TRV & L: LP S52T) VH: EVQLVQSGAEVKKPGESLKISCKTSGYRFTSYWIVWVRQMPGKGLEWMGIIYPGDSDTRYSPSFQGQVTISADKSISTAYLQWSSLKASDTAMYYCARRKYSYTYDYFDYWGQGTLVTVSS VL: QTVVTQEPSFSVSPGGTVTLTCGLSSGSVSTSYYPSWYQQTPGQAPRTLIYTTNTRSSGVPDRFSGSILGNKAALTITGAQADDESDYYCLLYMGPGISYVFGTGTKVTVL . Its measured ELISA absorbance at 450 nm is 0.99 A450
